# System: EW-18 (Ewing's Sarcoma);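 further: after 72 h of two-drug dosing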
# Assay: Bliss excess, mean over the matrix (fraction); higher = more synergy
// Bliss excess lookup, one value per entry
Measure Name: Bliss excess

Compound: COc1cccc(OCCCN)c1-c1cc(Nc2cnc(C#N)cn2)n[nH]1 [Prexasertib] + O=C(c1cc(Cc2n[nH]c(=O)c3ccccc23)ccc1F)N1CCN(C(=O)C2CC2)CC1 [Olaparib] (first compound max 1 µM, 7x7, partner max 10 µM)
Measure Name: Bliss excess
Measured: -0.0677

Compound: CC1(C)CCC(CN2CCN(c3ccc(C(=O)NS(=O)(=O)c4ccc(NCC5CCOCC5)c([N+](=O)[O-])c4)c(Oc4cnc5[nH]ccc5c4)c3)CC2)=C(c2ccc(Cl)cc2)C1 [Venetoclax] + CCN(CCO)CCCOc1ccc2c(Nc3cc(CC(=O)Nc4cccc(F)c4)[nH]n3)ncnc2c1 [AZD2811] (first compound max 1 µM, 7x7, partner max 1 µM)
Measure Name: Bliss excess
Measured: -0.0131

Compound: CC1(C)CCC(CN2CCN(c3ccc(C(=O)NS(=O)(=O)c4ccc(NCC5CCOCC5)c([N+](=O)[O-])c4)c(Oc4cnc5[nH]ccc5c4)c3)CC2)=C(c2ccc(Cl)cc2)C1 [Venetoclax] + COc1cc(Nc2ncc3c(n2)-c2ccc(Cl)cc2C(c2c(F)cccc2OC)=NC3)ccc1C(=O)O [Alisertib] (first compound max 1 µM, 7x7, partner max 10 µM)
Measure Name: Bliss excess
Measured: 0.0421
